Recorded protein stability index values for a group of variants are listed next.
B1: RIPK4 (parent)
chain: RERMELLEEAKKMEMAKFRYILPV

# Variants of: B1
# Assay remarks: protein stability index of a GFP-peptide fusion (GPS, HEK-293T) (PSI 1-6); higher = more stable;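 also: lentivirally expressed fusions sorted by FACS into six bins by GFP to DsRed ratio, PSI derived from sequencing read proportions per bin multiplied by bin number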
# Settings: c terminus: a fixed tail appended
Experimental endpoint: protein stability index

                     residue_string  value_reported
 0  RERMELLEEAKKMEMAKFRHILPV [Y20H]            2.83
 1   RERMERLEEAKKMEMAKFRYILPV [L6R]            3.56
 2  RERMELLEEAKKMEMAYFRYILPV [K17Y]             2.8
 3  RERMELLEEYKKMEMAKFRYILPV [A10Y]            3.93
 4   RGRMELLEEAKKMEMAKFRYILPV [E2G]            2.57
 5   RERYELLEEAKKMEMAKFRYILPV [M4Y]            2.82
 6  RERMELLEEAKKMEMATFRYILPV [K17T]             3.1
 7  RERMELLEEAKKMEMAKFRYILRV [P23R]            3.69
 8  RERMELLEEEKKMEMAKFRYILPV [A10E]            3.54
 9  RERMELLEEAKKMEMAKFRYILKV [P23K]            1.83
10  RERMELLEEAKKMEMNKFRYILPV [A16N]            4.29
11  RERMELLEEAKKMRMAKFRYILPV [E14R]            2.06
12  RERMELLEEAKKMEMFKFRYILPV [A16F]            2.29
13   RLRMELLEEAKKMEMAKFRYILPV [E2L]            2.57
14   RERMELLEYAKKMEMAKFRYILPV [E9Y]            2.49
15  RERMELLEEAKKMEMAKFRSILPV [Y20S]            3.91
16   RERMELNEEAKKMEMAKFRYILPV [L7N]            3.54
17  RERMELLEEAKKMEMVKFRYILPV [A16V]            3.03
18  RERMELLEEAKPMEMAKFRYILPV [K12P]             3.5
19   RERMETLEEAKKMEMAKFRYILPV [L6T]            3.49
20  RERMELLEEAKKWEMAKFRYILPV [M13W]            3.14
21   RERMELLKEAKKMEMAKFRYILPV [E8K]            3.42
22   RERMALLEEAKKMEMAKFRYILPV [E5A]             2.9
23   RVRMELLEEAKKMEMAKFRYILPV [E2V]            2.81
24  RERMELLEEKKKMEMAKFRYILPV [A10K]            4.38
25   RERMELLEQAKKMEMAKFRYILPV [E9Q]            3.31
26   RERMWLLEEAKKMEMAKFRYILPV [E5W]            2.23
27  RERMELLEEAKKMEMAKFRYIAPV [L22A]            4.27
28   RECMELLEEAKKMEMAKFRYILPV [R3C]            3.26
29  RERMELLEEAKKMEMAKNRYILPV [F18N]            4.03
30  RERMELLEEAKKMEMAKFRGILPV [Y20G]            3.74
31  RERMELLEEAKKMEMAKFRYIRPV [L22R]            4.07
32  RERMELLEEAKDMEMAKFRYILPV [K12D]             3.3
33  RERMELLEEAKKMEMAKFRYILPH [V24H]            3.24
34   RCRMELLEEAKKMEMAKFRYILPV [E2C]            1.34
35   RETMELLEEAKKMEMAKFRYILPV [R3T]            3.68
36   RIRMELLEEAKKMEMAKFRYILPV [E2I]            1.93
37   RFRMELLEEAKKMEMAKFRYILPV [E2F]            2.27
38  RERMELLEEAKMMEMAKFRYILPV [K12M]            2.78
39   RERKELLEEAKKMEMAKFRYILPV [M4K]            3.74
40  RERMELLEEAKKMEMAKFRYRLPV [I21R]             3.2
41   RERMELPEEAKKMEMAKFRYILPV [L7P]            4.01
42  RERMELLEEAKKMEMAKFRNILPV [Y20N]            3.05
